Known melting point of a selection of compounds

>  <compound>
CC(=O)OC1CCC2(C)C(=CCC3C2CCC2(C)C(C(C)CC(F)(F)CC(C)(C)O)CCC32)C1 (stereo unspecified)

>  <melting point>
168 to 170 °C

$$$$
>  <compound>
COc1ccc2c3c1O[C@H]1C[C@@H](O)C=C[C@@]31CCN(CCN1CCOCC1)C2

>  <melting point>
101 to 104 °C

$$$$
>  <compound>
COc1ccc(N2C(=O)C(O)C2c2ccccc2Cl)cc1 (stereo unspecified)

>  <melting point>
178 to 180 °C

$$$$
>  <compound>
O=S1CCc2nn(-c3ccc(Cl)cc3F)c(Cl)c2C1 (stereo unspecified)

>  <melting point>
119 to 122 °C

$$$$
>  <compound>
Cc1cccc(NC(=O)NCC(=O)N(c2ccccc2)c2ccccc2)c1

>  <melting point>
240 °C

$$$$
>  <compound>
O=C(c1cc2ccccc2cn1)N(O)CCc1ccccc1

>  <melting point>
90 to 95 °C

$$$$
>  <compound>
Cc1cc2cc(C3CCNCC3)oc2cc1C

>  <melting point>
77 to 78 °C

$$$$
>  <compound>
CCCOc1ccc(C2=NN(C(=O)Nc3ccc(OC(F)(F)F)cc3)CC2N(C)C(=O)OC)cc1 (stereo unspecified)

>  <melting point>
153 to 155 °C

$$$$
>  <compound>
COc1cc(NC(=O)Nc2ccccc2)cc(OC)n1

>  <melting point>
190 to 192 °C

$$$$
>  <compound>
CN(C1CCN(C2CC2)CC1)S(=O)(=O)c1ccc(Nc2nccc(Nc3ccc(F)cc3)n2)cc1

>  <melting point>
125 to 128 °C

$$$$
>  <compound>
COc1ccc(C(=S)Nc2ccccc2OC)cc1

>  <melting point>
84.5 to 86.5 °C

$$$$
>  <compound>
CCCCC[C@@H](CNC(=O)Nc1c(OCC)ccc2c1CCCC2)c1cccc2c1OCO2

>  <melting point>
81.5 to 82.5 °C

$$$$
>  <compound>
Nc1nnc(-c2cccc(OC(F)(F)C(F)F)c2)c(N)n1

>  <melting point>
199 to 200 °C

$$$$
>  <compound>
CC1CCC2C3CCC4CC(O)CCC4(C)C3C(N(C)C)CC12C (stereo unspecified)

>  <melting point>
150 to 156 °C

$$$$
>  <compound>
CC(CCc1cccc(Cl)c1)NC(=O)n1nc(N(C)C)n(N)c1=O (stereo unspecified)

>  <melting point>
74 °C

$$$$
>  <compound>
O=c1c2cc(F)c(Cl)nc2n(-c2ccc(F)cc2)c(=O)n1OCc1ccccc1

>  <melting point>
208 to 209 °C

$$$$
>  <compound>
Cc1ccc2c(c1)C(C(=O)Nc1ccccc1)c1ccccc1CO2 (stereo unspecified)

>  <melting point>
129 to 130 °C

$$$$
>  <compound>
CN1CCN(c2cc3c(cc2F)c(=O)c(C(=O)O)cn3C2CC2)CC1c1ccco1 (stereo unspecified)

>  <melting point>
122 to 124 °C

$$$$
>  <compound>
COc1ccc(S(=O)(=O)Nc2ccccc2N)cc1

>  <melting point>
141 to 142 °C

$$$$
>  <compound>
CCC(=NOc1ccc(F)cc1)c1cc(Cl)ccc1NS(=O)(=O)C(F)(F)F

>  <melting point>
47 to 48 °C

$$$$
>  <compound>
CNc1cccc2c1nc(-c1c(F)cccc1F)n2Cc1c(F)cccc1F

>  <melting point>
194 to 195 °C

$$$$
>  <compound>
CC(=O)Nc1ccc(/C=C/C(=O)N2CC(CCl)c3c2cc(N)c2ccccc32)cc1 (stereo unspecified)

>  <melting point>
> 250 °C

$$$$
>  <compound>
COc1cc(OC)nc(NC(=O)NS(=O)(=O)c2ccccc2Cc2nnc(SC)s2)n1

>  <melting point>
171 to 175 °C

$$$$
>  <compound>
O=C1CC2CC(C1)CN(Cc1ccccc1)C2

>  <melting point>
89 °C

$$$$
>  <compound>
Cc1cc2c(cc1O)C(C)(C)CC1(CC(C)(C)c3cc(OC(C)(C)C(=O)O)c(C)cc3O1)O2 (stereo unspecified)

>  <melting point>
99 to 101 °C

$$$$
>  <compound>
CC1=CC2(C)CC3CCCC(C)(C2=O)C13 (stereo unspecified)

>  <melting point>
46 to 47 °C

$$$$
>  <compound>
COC(=O)c1nccnc1NS(=O)(=O)c1cccc(Cl)c1Cl

>  <melting point>
177 to 178 °C

$$$$
>  <compound>
ON=C1CCc2cc(F)ccc21

>  <melting point>
150 to 155 °C

$$$$
>  <compound>
O=C(O)c1ccc2ccc(S)cc2c1

>  <melting point>
211 to 216 °C

$$$$
>  <compound>
COC(=O)C(=C(C)C)N1C(=O)[C@H](N2C(=O)c3ccccc3C2=O)[C@H]1Cl

>  <melting point>
122 to 125 °C

$$$$
>  <compound>
CC(C)(C)OC(=O)N1CCN(CC(O)Cn2c3ccc(Br)cc3c3cc(Br)ccc32)CC1 (stereo unspecified)

>  <melting point>
90 to 95 °C

$$$$
>  <compound>
Clc1ccc2c(c1)C(Br)Cn1cccc1S2 (stereo unspecified)

>  <melting point>
106 to 107 °C

$$$$
>  <compound>
Fc1ccc(CNc2nc(-n3cnc4ccccc43)nc(-n3cnc4ccccc43)n2)cc1

>  <melting point>
296 to 298 °C

$$$$
>  <compound>
O=C(O)C1CC(=S)N(c2cc(C(F)(F)F)cc(C(F)(F)F)c2)C1 (stereo unspecified)

>  <melting point>
141 to 142 °C

$$$$
>  <compound>
CCC(C)(CC)c1ccc(N)nn1

>  <melting point>
56 to 58 °C

$$$$
>  <compound>
CC1CCC(CNc2cc3oc(=O)[nH]c3cc2F)C(C)O1 (stereo unspecified)

>  <melting point>
123 to 139 °C

$$$$
>  <compound>
COCCOCCOCC(=O)Nc1c(I)c(N)c(I)c(C(=O)O)c1I

>  <melting point>
177 to 178 °C

$$$$
>  <compound>
CC1CCCC(C)N1NC(=O)Nc1cccc2c1C(=O)c1c-2n[nH]c1-c1ccc(N2CCNCC2)cc1 (stereo unspecified)

>  <melting point>
270 °C

$$$$
>  <compound>
CC(C)(C)OC(=O)NCCc1ccc(CC(=O)O)cc1

>  <melting point>
94 to 95 °C

$$$$
>  <compound>
CCCCN(C(=O)C1CCCCC1)c1nn(C)cc1Cl

>  <melting point>
110 to 112 °C

$$$$
>  <compound>
CN1Cc2c(-c3noc(CCl)n3)ncn2-c2ccc(F)cc2C1=O

>  <melting point>
245 to 247 °C

$$$$
